Source of measurements: paper PMC4971072

Measured Beats/min (ECG) accompanies every entry in the list below.
# Tested on: normal ECG in rats
# test protocol: The effect on normal electrocardiogram in rats
# Format: in vivo, rat
# conditions: anesthetized rats, i.p. at ED84; 10 min
attribute measured: Beats/min (ECG) (Beats/min)

compound="COc1ccccc1N1CCN(CCCOc2cc(C)cc(C)c2C)CC1 [HBK-19]" attribute_measured="Beats/min (ECG)" result_value=339.1
compound="COc1ccccc1N1CCN(CCOCCOc2c(C)cccc2Cl)CC1.Cl [HBK-15]" attribute_measured="Beats/min (ECG)" result_value=350.8
compound="COc1ccccc1N1CCN(CCCOc2cc(C)ccc2Cl)CC1 [HBK-16]" attribute_measured="Beats/min (ECG)" result_value=330.1
compound="COc1ccccc1N1CCN(CCCOc2c(C)cc(C)cc2C)CC1 [HBK-18]" attribute_measured="Beats/min (ECG)" result_value=298.7
compound="COc1ccccc1N1CCN(CCOCCOc2c(C)cccc2C)CC1.Cl [HBK-14]" attribute_measured="Beats/min (ECG)" result_value=367.0

----------
List of Beats/min (ECG) values.
# Test system: normal ECG in rats
# test protocol: The effect on normal electrocardiogram in rats
# Assay type: in vivo, rat
# conditions: anesthetized rats, i.p. at ED84; 30 min
attribute measured: Beats/min (ECG) (Beats/min)

structure_notation=COc1ccccc1N1CCN(CCCOc2cc(C)ccc2Cl)CC1 attribute_measured="Beats/min (ECG)" result_value=302.8
structure_notation=COc1ccccc1N1CCN(CCOCCOc2c(C)cccc2C)CC1.Cl attribute_measured="Beats/min (ECG)" result_value=359.8
structure_notation=COc1ccccc1N1CCN(CCOCCOc2c(C)cccc2Cl)CC1.Cl attribute_measured="Beats/min (ECG)" result_value=340.1

----------
# Tested on: normal ECG in rats
# test protocol: The effect on normal electrocardiogram in rats
# Type: in vivo, rat
# conditions: anesthetized rats, i.p. at ED84; 30 min
PQ (ECG) values, listed per item
attribute measured: PQ (ECG) (ms)

compound="COc1ccccc1N1CCN(CCCOc2cc(C)ccc2Cl)CC1 [HBK-16]" result_value=64.4
compound="COc1ccccc1N1CCN(CCOCCOc2c(C)cccc2Cl)CC1.Cl [HBK-15]" result_value=46.1
compound="COc1ccccc1N1CCN(CCCOc2c(C)cc(C)cc2C)CC1 [HBK-18]" result_value=56.9
compound="COc1ccccc1N1CCN(CCOCCOc2c(C)cccc2C)CC1.Cl [HBK-14]" result_value=48.8
compound="COc1ccccc1N1CCN(CCCOc2cc(C)cc(C)c2C)CC1 [HBK-19]" result_value=60.1

----------
The compounds listed here are annotated with their QT (ECG).
# Tested on: normal ECG in rats
# test protocol: The effect on normal electrocardiogram in rats
# Assay type: in vivo, rat
# conditions: anesthetized rats, i.p. at ED84; 20 min
attribute measured: QT (ECG) (ms)

structure_notation=COc1ccccc1N1CCN(CCCOc2cc(C)ccc2Cl)CC1 target_desc="normal ECG in rats" result_value=51.4
structure_notation=COc1ccccc1N1CCN(CCCOc2c(C)cc(C)cc2C)CC1 target_desc="normal ECG in rats" result_value=77.9
structure_notation=COc1ccccc1N1CCN(CCOCCOc2c(C)cccc2Cl)CC1.Cl target_desc="normal ECG in rats" result_value=87.2
structure_notation=COc1ccccc1N1CCN(CCOCCOc2c(C)cccc2C)CC1.Cl target_desc="normal ECG in rats" result_value=88.2
structure_notation=COc1ccccc1N1CCN(CCCOc2cc(C)cc(C)c2C)CC1 target_desc="normal ECG in rats" result_value=84.3
